Task for the reader: assign each of the following binders its reported EC50.
- SUBJECT_OF_TEST: LHRH binding sites on EFO-27 human ovarian cancer cells (human)
- PROCEDURE_TEXT: competition with [125I-Tyr8]BRU-2477 on EFO-27 cells
Non-standard residues stand in square brackets, D forms with d. Bpa = N[C@@H](Cc1ccc(C(=O)c2ccccc2)cc1)C(=O)O; DO3A10CM = not defined here; Chmgly = not defined here; azaGly = NNC(=O)O
One number for each entry, in nM.

Take a look at these entries with their results.
Suppose we examine the binder DO3A10CM-G[Chmgly]HWSHRW[Bpa]P[azaGly]-NH2 (not fully specified (residue 7); reading uncertain; also: AA6 Darg prints R) [BRU-2877] ; what EC50 value has been reported? 900

Any idea what EC50 was measured for XRWSXXWXPX (DO3A10CM on N-terminus; AA1 Dnal2; AA5 Tha; AA6 Darg; AA8 Bpa4; AA10 azaGly-NH2) [BRU-2958] ? 710

Let us move to another entry and its EC50.
Which EC50 reading was recorded for the binder XRXSHXWXPX (DO3A10CM on N-terminus; AA1 Dnal2; AA3 Dtrp; AA6 Darg; AA8 Bpa4; AA10 azaGly-NH2) [BRU-3112] ? 850

Just for reference, patent US20120045393A1 is where these values come from.
